# Barnyardgrass plant response rating (0 to 100 scale) listing for each entry below
Test system: barnyardgrass (Echinochloa crus-galli)
measurement.notes: Test A preemergence, visual injury rating 0-100 (0 no effect, 100 complete control)
Format: in vivo
run.parameters: 500 g ai/ha

- CC1=[N+]([O-])C(C(=O)Nc2cccc(F)c2F)C(c2ccc(C(F)(F)F)nc2)C1 (racemic): 100

Please report the measured Barnyardgrass plant response rating (0 to 100 scale) for CC1=[N+]([O-])C(C(=O)Nc2cccc(F)c2F)C(c2cccc(Cl)c2F)C1 (stereo not drawn)
90

In one line, give reported Barnyardgrass plant response rating (0 to 100 scale) of the entry COc1cc(OC)cc(C2CC(C)=[N+]([O-])C2C(=O)Nc2cccc(F)c2F)c1 (stereo not drawn) .
100

* * *

Ragweed plant response rating reference
Tested on: ragweed (common ragweed, Ambrosia elatior)
measurement.notes: Test A postemergence, visual injury rating 0-100
Assay type: in vivo
run.parameters: 500 g ai/ha, 0 to 100 scale
Give the figure only, with no unit attached.

Please indicate Ragweed plant response rating recorded for CC1=[N+]([O-])C(C(=O)Nc2ccccc2C(F)(F)F)C(c2ccc(C(F)(F)F)cc2)C1 (racemic)
40

Identify measured Ragweed plant response rating corresponding to CC1=[N+]([O-])C(C(=O)Nc2cccc(F)c2F)C(c2ccccc2)C1 (stereo not drawn) [Compound 97]
20

* * *

System: corn (Zea mays)
measurement.notes: Test A postemergence, visual injury rating 0-100
Assay type: in vivo
run.parameters: 500 g ai/ha, 0 to 100 scale
Label scheme for Corn plant response rating: lower than 40 is -1, 40 and above is 1.

Would you please look over these solved cases?
- CC1=[N+]([O-])C(C(=O)Nc2cccc(F)n2)C(c2ccc(C(F)(F)F)cc2)C1 (racemic): -1
- CC1=[N+]([O-])C(C(=O)Nc2cccc(F)c2F)C(c2cc(C)cc(Cl)c2)C1 (stereo not shown): 1
- CC1=[N+]([O-])C(C(=O)Nc2cccc(F)c2F)C(c2cc(C)cc(F)c2)C1 (racemic): 1
- CC1=[N+]([O-])C(C(=O)Nc2ccccc2S(C)(=O)=O)C(c2ccc(C(F)(F)F)cc2)C1 (racemic): -1

Read the next record carefully.
Is it the case that CC(C)C1=[N+]([O-])C(C(=O)Nc2cccc(F)c2F)C(c2ccc(C(F)(F)F)cc2)C1 (racemic) has Corn plant response rating reaching or exceeding 40?
-1

* * *

Tested on: barnyardgrass (Echinochloa crus-galli)
measurement.notes: Test A preemergence, visual injury rating 0-100 (0 no effect, 100 complete control)
Type: in vivo
run.parameters: 500 g ai/ha
measured.endpoint: Barnyardgrass plant response rating (0 to 100 scale)

Use these answered entries as a reference point.
- CC1=[N+]([O-])C(C(=O)Nc2cccc(F)c2F)C(c2cc(F)c(C(F)(F)F)c(F)c2)C1 (racemic): 90
- CC1=[N+]([O-])C(C(=O)Nc2cccc(F)c2F)C(c2cccc(F)c2C)C1 (racemic): 90
- CC1=[N+]([O-])C(C(=O)Nc2cccc(F)c2F)C(c2ccccc2)C1 (stereo not drawn): 100
- CC1=[N+]([O-])C(C(=O)Nc2cccc(F)c2F)C(c2ccc(Br)cn2)C1 (racemic): 20
- COc1cccc(C2CC(C)=[N+]([O-])C2C(=O)Nc2cccc(F)c2F)n1 (racemic): 70

// fetch Barnyardgrass plant response rating (0 to 100 scale) given entry CC1=[N+]([O-])C(C(=O)Nc2cccc(F)c2F)C(c2ccc(Cl)c(F)c2)C1 (racemic)
90

Output Barnyardgrass plant response rating (0 to 100 scale) of CC1=[N+]([O-])C(C(=O)Nc2cccc(F)c2F)C(c2cc(C)cc(C(F)(F)F)c2)C1 (stereo not drawn)
90

Please supply the value of reported Barnyardgrass plant response rating (0 to 100 scale) for the item CC1=[N+]([O-])C(C(=O)Nc2cccc(F)c2F)C(c2cccc3c2CCC3)C1 (racemic)
100

Report Barnyardgrass plant response rating (0 to 100 scale), nothing else, for this molecule: CC1=[N+]([O-])C(C(=O)Nc2cccc(F)c2F)C(c2ccc(C(F)(F)F)cc2F)C1 (stereo not drawn)
90

Note down Barnyardgrass plant response rating (0 to 100 scale) recorded for CCOc1cc(OC)cc(C2CC(C)=[N+]([O-])C2C(=O)Nc2cccc(F)c2F)c1 (racemic)
90

Report Barnyardgrass plant response rating (0 to 100 scale) for COc1cc(C)cc(C2CC(C)=[N+]([O-])C2C(=O)Nc2cccc(F)c2F)c1 (stereo not drawn)
90

Provide one value: measured Barnyardgrass plant response rating (0 to 100 scale) of CC1=[N+]([O-])C(C(=O)Nc2cccc(F)c2F)C(c2cccc(Cl)n2)C1 (stereo not drawn)
40

All values here come from patent US11498899B2.
